assay: p53 stabilisation in HPV-positive human cells, imaging, p53-positive nuclei imaging, 24 h, 48 h (AID 1508601); conditions: 24/48 h, measured here: cell number at 48 h, Library stock concentration: 1.111 mM
Hit rate of the full screen: of about 5,700 compounds, about 85 (1%) were called active. What follows is part of a selection rich in actives, with near analogues and random picks from the rest.

| compound | measurement units | nuclei count, normalised |
| --- | --- | --- |
| OC1CN2CCC(O)[C@H]2C(O)C1O (some centres undefined) | % | 102 |
| CC1OC(O[C@H]2CC[C@@]3(C)[C@@H](CC[C@@H]4[C@H]3CC[C@]3(C)[C@@H](C5=CC(=O)OC5)CC[C@]43O)C2)CC(O)C1O (some centres undefined) | % | 28.3 |
| CC[n+]1c(-c2ccccc2)c2cc(N)ccc2c2ccc(N)cc21 | % | 99.7 |
| CC1=CC(=O)c2c(O)cccc2C1=O | % | 32.4 |
